meta.source: PubChem BioAssay

TARGET_OF_ASSAY: Luciferin 4-monooxygenase (Photinus pyralis)
METHOD_DESCRIPTION: firefly luciferase enzyme inhibitors, primary screen, biochemical, luminescence, purified enzyme, 2006 set (AID 1141);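 note: cell-free assay with purified firefly luciferase at 100 ng per well in PBS; test concentration not given here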
MEASUREMENT_CONDITIONS: SteadyGlo luminescence, 30 min, higher = more signal, called active from +8 up or from −8 down
z-score values by entry
Give your answer as a number; write no unit.

Solved cases below.
COMPOUND	z-score
C=CCC(OC(C)=O)[C@@H]1[C@@H](N(Cc2ccc(-c3ccccc3)cc2)C(=O)Cc2ccc(OC)cc2)c2cc(OCCCO)ccc2N1C(=O)Cc1ccc2ccccc2c1 (stereo partly drawn)	-0.358
COCCOC(=O)N1C(=O)[C@@]2(c3cc(C#CCC(C(=O)OC)C(=O)OC)ccc31)[C@H](C(=O)Nc1nc3ccccc3s1)[C@H]1C(=O)O[C@H](c3ccccc3)[C@H](c3ccccc3)N1[C@@H]2c1ccccc1OCCO	-1.56

Attention now shifts to the item below.
Problem: Requested read-out: z-score. Entry: `COc1cc2c(cc1OC)CN(C(=O)[C@H]1[C@@H]3C(=O)O[C@@H](c4ccccc4)[C@@H](c4ccccc4)N3[C@@H](c3ccc(O)cc3)[C@]13C(=O)Nc1ccccc13)CC2`
Solution: -0.204

---

METHOD_DESCRIPTION: binders of probe aFGF10 on microarray, primary screen, stem cell growth factor project, biochemical, small-molecule microarray, fluorescence 635/667 (AID 1071);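 note: score merges 667 nm spot intensity and signal to noise from triplicate slides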
MEASUREMENT_CONDITIONS: higher = more signal
RECORDED_METRIC: composite z-score
A bare number is all that is needed in reply.

Examples with their reported composite z-score follow.
STRUCTURE_SMILES	composite z-score
COc1ccc([Si](C)(C)[C@H]2[C@H](CC(=O)N3Cc4ccccc4C[C@H]3CO)O[C@@]3(C(=O)N(Cc4cccc(N5CCC5=O)c4)c4ccccc43)[C@@H]2C)cc1	0.726
COC(=O)[C@@]1(Cc2ccc(OC)cc2)[C@H]2c3cc(C(=O)N(C)C)n(Cc4ccc(S(C)(=O)=O)cc4)c3C[C@H]2CN1C(=O)c1ccccc1	0.178
O=C1O[C@H](c2ccccc2)[C@H](c2ccccc2)N2[C@H]1[C@@H](C(=O)N1CCCCCCC1)[C@]1(C(=O)Nc3ccc(C#CCCO)cc31)[C@H]2c1ccccc1OCCO	1.62
NCCCCCNC(=O)[C@@H]1C[C@@H]2C(=O)N[C@@H](Cc3ccccc3)C(=O)N2[C@@H]1c1ccc(O)cc1	0.507
NC(=O)NCC#Cc1ccc2c(c1)[C@]1(C(=O)N2)[C@H](C(N)=O)[C@H]2C(=O)O[C@H](c3ccccc3)[C@H](c3ccccc3)N2[C@@H]1c1ccc(O)cc1	-0.166

Problem: Quick one: composite z-score of `COCCOC(=O)N1C(=O)[C@@]2(c3cc(C#CC4(O)CCCCCC4)ccc31)[C@H](c1ccccc1OCCO)N1[C@H](c3ccccc3)[C@H](c3ccccc3)OC(=O)[C@H]1[C@@H]2C(=O)N1CCN(c2ncccn2)CC1` ?
Solution: 0.801

---

Reported composite z-score values for the following molecules.
METHOD_DESCRIPTION: binders of probe aHhip on microarray, primary screen, stem cell growth factor project, biochemical, small-molecule microarray, fluorescence 635/667 (AID 1087);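 note: score merges spot fluorescence at 667nm with spot signal to noise ratio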
MEASUREMENT_CONDITIONS: higher = more signal
The answer should be a number; do not append a unit.

MOLECULE	composite z-score
O=C1C[C@@](C(=O)NCC(F)(F)F)(c2ccc([N+](=O)[O-])cc2)[C@@H](c2ccc(CO)cc2I)N1C1CCCCC1	-0.0994

Problem: For the molecule `COCCOC(=O)N1C(=O)[C@@]2(c3cc(C#CCC(C(=O)OC)C(=O)OC)ccc31)[C@H](C(=O)Nc1nc3ccccc3s1)[C@H]1C(=O)O[C@H](c3ccccc3)[C@H](c3ccccc3)N1[C@@H]2c1ccccc1OCCO` , what composite z-score is on record?
Solution: 0.0873

Problem: Request: `O=C1C[C@@](C(=O)NC2CC2)(c2ccc([N+](=O)[O-])cc2)[C@@H](c2ccc(CO)cc2I)N1C1CCCCC1`
Solution: 0.075

Problem: Follow-up entry: `C=C(CC1([C@@H](NP(=O)(c2ccccc2)c2ccccc2)[C@H]2C[C@@H]2CCCC)CC1)c1ccccc1`
Solution: 0.419

Problem: Next up: O[C@@H](Cc1ccccc1)[C@H]1C2C=CCCC=C2CN1Cc1cccc(Cl)c1 (stereo partly specified)
Solution: -0.214

Problem: Can you check `COCCOC(=O)N1C(=O)[C@@]2(c3cc(C#CCCO)ccc31)[C@H](C(=O)N1CCCCCCC1)[C@H]1C(=O)O[C@H](c3ccccc3)[C@H](c3ccccc3)N1[C@@H]2c1ccc(OCCO)cc1` next?
Solution: 0.0111

---

Listed compounds paired with reported composite z-score
Test system: Lefty1
METHOD_DESCRIPTION: Lefty1 binders on small-molecule microarrays, primary screen, biochemical, small-molecule microarray, 635/667 nm fluorescence (AID 1139)
MEASUREMENT_CONDITIONS: small-molecule microarray binding, fluorescence 635/667; higher = more signal
Just the number, please.

Problem: Field request: composite z-score | item: `O=C1O[C@H](c2ccccc2)[C@H](c2ccccc2)N2[C@H]1[C@@H](C(=O)N1CCCCCCC1)[C@]1(C(=O)Nc3ccc(C#CCCO)cc31)[C@H]2c1ccccc1OCCO`
Solution: 1.93

Problem: Proceed to `COC(=O)[C@@]1(Cc2ccc(F)cc2)[C@H]2c3cc(C(=O)N4CCCC4)n(Cc4ccc(S(C)(=O)=O)cc4)c3C[C@H]2CN1C(=O)c1ccccc1`
Solution: -0.0071

---

TARGET_OF_ASSAY: Pro-neuregulin-1, membrane-bound isoform (Homo sapiens)
METHOD_DESCRIPTION: NRG1 binders on small-molecule microarrays, primary screen, psychiatric disease protein project, biochemical, small-molecule microarray, fluorescence 635/667 (AID 1075);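 note: score combines 667 nm spot fluorescence with signal to noise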
MEASUREMENT_CONDITIONS: NRG1 binding, 635 nm fluorescence, higher = more signal
composite z-score listing for selected compounds.
Please reply with the number alone, leaving off any unit.

COMPOUND	OBSERVED_MEASUREMENT
C=CCOC(=O)[C@H]1[C@@H]2C(=O)O[C@@H](c3ccccc3)[C@@H](c3ccccc3)N2[C@@H](c2ccc(OCCOC(=O)[C@H]3C[C@H]4C(=O)N[C@@H](CCCCN(C)C)C(=O)N4[C@H]3c3ccc(O)cc3)cc2)[C@]12C(=O)Nc1ccc(I)cc12	1.77

Problem: Would you kindly share the measured composite z-score for CC(C)c1ccc(NN2C(C(O)c3ccc(B(O)O)cc3)C=CC3C(=O)N(c4ccccc4)C(=O)C32)cc1 (configuration not stated) ?
Solution: 1.19

Problem: Here is the next compound: `[N-]=[N+]=Nc1ccccc1[C@@H]1OC(c2ccc(OCCCO)cc2)=N[C@]1(Cc1ccccc1)C(=O)N1CCOCC1`
Solution: 1.26

Problem: // repeat for `CN(C)CCCC[C@@H]1NC(=O)[C@@H]2C[C@H](C(=O)NCCCCCCN)[C@H](c3cccc(OCCO)c3)N2C1=O` and report
Solution: 2.24

Problem: Can you check `O=C1C[C@@](C(=O)NCCN2CCOCC2)(c2ccc([N+](=O)[O-])cc2)[C@@H](c2ccc(CO)cc2)N1CC12CC3CC(CC(C3)C1)C2` next?
Solution: 1.58

Problem: Record: O=C(OCc1ccccc1)C1=CCC2c3[nH]c4ccccc4c3C(=O)C1N2S(=O)(=O)c1ccccc1[N+](=O)[O-] (configuration not stated)
Solution: 1.65

Problem: Would you kindly repeat that for `[N-]=[N+]=NCc1ccccc1C[C@]1(C(=O)N2CCCCC2)N=C(c2ccc(OCCCO)cc2)O[C@H]1c1ccccc1N=[N+]=[N-]` ?
Solution: 1.57

---

METHOD_DESCRIPTION: small-molecule microarray binders of probe aEGFR, primary screen, biochemical, biotinylated probe, 635/667 nm fluorescence (AID 1097);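 note: probe is a biotinylated anti-EGFR antibody binding compounds printed on slides; score combines fluorescence near 667 nm and signal to noise of each spot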
MEASUREMENT_CONDITIONS: higher = more signal
Cut-off -0.07 on composite z-score, inclusive. At or above means YES; below means NO.

Problem: Form field: composite z-score at least -0.07? Entry: `O=C(NCCN1CCOCC1)[C@@H]1c2ccccc2C(=O)N(C2CCCCC2)[C@H]1c1ccc(CO)cc1`
Solution: NO

Problem: How about this compound: `CCOC(=O)C1=CC[C@@H](c2ccccc2)N(S(=O)(=O)c2ccc(C)cc2)[C@H]1c1ccccc1C`
Solution: YES

Problem: Record: `C=C(CC1([C@@H](NP(=O)(c2ccccc2)c2ccccc2)[C@H]2C[C@@H]2CCCC)CC1)c1ccccc1`
Solution: NO

Problem: Now this one: `CN(C)C(=O)[C@]1(Cc2ccccc2N=[N+]=[N-])N=C(c2ccc(OCCCO)cc2)O[C@@H]1c1ccccc1N=[N+]=[N-]`
Solution: YES

Problem: Another compound to look at: `CN(C)CCCCCCNC(=O)[C@H]1C[C@H]2C(=O)N[C@@H](CCCCN)C(=O)N2[C@H]1c1cccc(OCCO)c1`
Solution: YES

Problem: Another compound to check: `O=C1[C@@]23C=C(Br)[C@H](C[C@@H]2CCOC3)[C@@]12CO2`
Solution: YES

Problem: Another compound: `Cc1ccc(S[C@]2(C(=O)NC3CC3)CC(=O)N(Cc3ccccc3)[C@@H]2c2ccc(CO)cc2I)cc1`
Solution: NO

Problem: Would you mind doing `COCC(=C=CC[C@@H](O)c1cccc(OCCO)c1)C[C@@H](O)c1ccccn1` as well?
Solution: NO
